Target: TelJak2 (Homo sapiens, UniProt O60674)
Sequence (O60674 with tags, fused parts or gaps): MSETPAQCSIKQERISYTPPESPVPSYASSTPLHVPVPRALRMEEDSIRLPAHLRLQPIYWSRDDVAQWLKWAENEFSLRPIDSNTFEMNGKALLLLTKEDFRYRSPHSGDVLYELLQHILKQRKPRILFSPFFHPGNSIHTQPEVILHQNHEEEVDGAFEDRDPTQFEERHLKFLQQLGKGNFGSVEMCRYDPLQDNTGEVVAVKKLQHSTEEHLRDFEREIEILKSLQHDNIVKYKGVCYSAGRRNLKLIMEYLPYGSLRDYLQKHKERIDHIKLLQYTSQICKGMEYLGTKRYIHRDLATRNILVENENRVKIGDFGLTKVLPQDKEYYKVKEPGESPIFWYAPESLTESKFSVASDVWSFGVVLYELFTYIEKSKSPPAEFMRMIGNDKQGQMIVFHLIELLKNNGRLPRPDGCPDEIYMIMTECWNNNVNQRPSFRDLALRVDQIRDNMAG
Test: Cellular growth assay (MTT), BaF3 TEL/JAK2 cells
Assay type: cell-based
Details: 40 hr incubation, read-out: TelJak2 (inhibition of 50% of cellular growth)
pIC50: −log10 of the molar value.
I'd appreciate it if you could supply pIC50 values for the items below.

Illustrative cases are given below, each with its answer.
{"MOLECULE": "CCCC(Nc1cncc(-c2ccc(O)c(OC)c2)n1)c1ccc(OC)c(OC)c1 (stereo not drawn)", "pIC50": "≥ 4.70"}
{"MOLECULE": "COc1cc(-c2cncc(NC(CCC3OCCO3)c3cccc(Cl)c3)n2)ccc1O (stereo not drawn)", "pIC50": "≥ 4.70"}
{"MOLECULE": "CCCC(Nc1cncc(-c2ccc(O)c(OC)c2)n1)c1cccc(F)c1F (stereo not drawn)", "pIC50": "≥ 4.70"}

List pIC50 for every entry below, keeping the order given.
1. CCCC(Nc1cncc(-c2ccc(O)c(OC)c2)n1)c1cccc(C(=O)OC)c1 (stereo not drawn)
2. CCCC(Nc1cncc(-c2ccc(O)c(OC)c2)n1)c1cccc(N)c1 (stereo not drawn)
3. CCCC(Nc1cncc(-c2ccc(O)c(OC)c2)n1)c1cccc(O)c1 (stereo not drawn)
4. CCCC(Nc1cncc(-c2ccc(O)c(OC)c2)n1)c1cccc([C@H](O)OCCOCC)c1 (stereo partly drawn)
5. CCCC(Nc1cncc(-c2ccc(O)c(OC)c2)n1)c1ccncc1 (stereo not drawn)
6. CCCC(Nc1cncc(-c2cc(OC)c(OC)c(OC)c2)n1)c1ccccc1 (stereo not drawn)
7. CCCC(Nc1cncc(-c2ccc(O)c(OC)c2)n1)c1cccc(C(=O)NCc2cccnc2)c1 (stereo not drawn)
8. CCCC(Nc1cncc(-c2ccc(O)c(OC)c2)n1)c1ccc(N(CC)CC)cc1 (stereo not drawn)

Reply:
1. ≥ 4.70
2. ≥ 4.70
3. ≥ 4.70
4. ≥ 4.70
5. ≥ 4.70
6. ≥ 4.70
7. ≥ 4.70
8. ≥ 4.70

###

I'd appreciate it if you could supply IC50 values for the items below.
Test system: PC3 (Prostate Cancer) cells
Experiment: Cellular growth assay (MTT), PC3
Format: cell-based
Conditions: Homo sapiens, PC-3, 40 hr incubation, read-out: PC3 (inhibition of 50% of cellular growth)
Method: K562 (Chronic Myeloid Leukemia), PC3 (Prostate Cancer), and DU145 (Prostate Cancer) were obtained from the American Type Culture Collection (ATCC). K562 was grown in RPMI, with 10% FBS with Glutamx added. DU145 cells were cultured in DMED, with 10% FBS and Glutamx and MEM non-essential amino acids added. PC3 cells were grown in F12K medium, with 10% FBS and Glutamx and MEM non-essential amino acids added. All cells were grown at 37° C. in 5% CO2.

Illustrative cases are given below, each with its answer.
{"COMPOUND": "CCCC(Nc1cncc(-c2ccc(O)c(OC)c2)n1)c1cccc(N)c1 (stereo not drawn)", "IC50": "≤ 20 µM"}
{"COMPOUND": "CCCC(Nc1cncc(-c2ccc(O)c(OC)c2)n1)c1cc(OC)cc(OC)c1 (stereo not drawn)", "IC50": "≤ 20 µM"}

Now consider the entry below.
Ask: Entry CCCC(Nc1cncc(-c2ccc(O)c(OC)c2)n1)c1ccc(OC)nc1 (stereo not drawn) : reported IC50 = ?
Reply: > 20 µM

###

I'd appreciate it if you could supply pIC50 values for the items below.
System: PC3 (Prostate Cancer) cells
Experiment: Cellular growth assay (MTT), PC3
Assay type: cell-based
Conditions: Homo sapiens, PC-3, 40 hr incubation, read-out: PC3 (inhibition of 50% of cellular growth)
pIC50: −log10 of the molar value.

{"COMPOUND": "CCCC(Nc1cncc(-c2ccc3c(c2)OCO3)n1)c1ccccc1 (stereo not shown)", "RESULT": "≥ 4.70"}
{"COMPOUND": "CCCC(Nc1cncc(-c2ccc(O)c(OC)c2)n1)c1cc(F)ccc1F (stereo not shown)", "RESULT": "< 4.70"}
{"COMPOUND": "CCCC(Nc1cncc(-c2ccc(O)c(OC)c2)n1)c1ccc(C(F)(F)F)cc1 (stereo not shown)", "RESULT": "< 4.70"}

Ask: Which pIC50 is reported with PC3 (Prostate Cancer) cells for this entry: CCCC(Nc1cncc(-c2ccc(NC(C)=O)c(OC)c2)n1)c1cncc(C)c1 (stereo not shown) ?
Reply: < 4.70

###

I'd appreciate it if you could supply pIC50 values for the items below.
System: PC3 (Prostate Cancer) cells
Assay: Cellular growth assay (MTT), PC3
Format: cell-based
Conditions: Homo sapiens, PC-3, 40 hr incubation, read-out: PC3 (inhibition of 50% of cellular growth)
pIC50: −log10 of the molar value.

Illustrative cases are given below, each with its answer.
{"MOLECULE": "COc1cc(-c2cncc(NC(CCCCN3CCOCC3)c3ccccc3)n2)ccc1O (stereo not shown)", "EXPERIMENTAL_READOUT": "pIC50", "RESULT": "< 4.70"}
{"MOLECULE": "CCN(CC)CCCCC(Nc1cncc(-c2ccc(O)c(OC)c2)n1)c1ccccc1 (stereo not shown)", "EXPERIMENTAL_READOUT": "pIC50", "RESULT": "< 4.70"}
{"MOLECULE": "CCCC(Nc1cncc(-c2ccc(O)c(OC)c2)n1)c1ccc(F)cc1 (stereo not shown)", "EXPERIMENTAL_READOUT": "pIC50", "RESULT": "< 4.70"}

Ask: Entry CCCC(Nc1cncc(-c2ccc(O)c(OC(C)C)c2)n1)c1cccnc1 (stereo not shown) : reported pIC50 = ?
Reply: ≥ 4.70

###

I'd appreciate it if you could supply pIC50 values for the items below.
Target: TelJak2 (Homo sapiens, UniProt O60674)
Assay: Cellular growth assay (MTT), BaF3 TEL/JAK2 cells
Conditions: 40 hr incubation, read-out: TelJak2 (inhibition of 50% of cellular growth)
pIC50: −log10 of the molar value.

{"COMPOUND": "CCCC(Nc1cncc(-c2ccc(O)c(OC)c2)n1)c1c(F)cccc1Cl (stereo not shown)", "EXPERIMENTAL_READOUT": "pIC50", "RESULT": "≥ 4.70"}

List pIC50 for every entry below, keeping the order given.
1. CCCC(Nc1cnc(C)c(-c2ccc(N)c(OC)c2)n1)c1ccccc1 (stereo not shown)
2. CCN(CC)CCCC(Nc1cncc(-c2ccc(O)c(OC)c2)n1)c1ccccc1 (stereo not shown)
3. CCCC(Nc1cncc(-c2cc(C)c(OCCN(CC)CC)c(C)c2)n1)c1ccc(F)cc1 (stereo not shown)
4. CCCC(Nc1cncc(-c2ccc(N)c(OC)c2)n1)c1ccccc1 (stereo not shown)
5. CCCC(Nc1cncc(-c2ccc(O)c(OC)c2)n1)c1ccc(C)cc1 (stereo not shown)

Reply:
["≥ 4.70", "≥ 4.70", "≥ 4.70", "≥ 4.70", "≥ 4.70"]

Origin of measurements: patent US8084456B2
